system: Ovcar3 (PTK7 high); assay: Cellular killing on PTK7 cell lines (Cell-Titer-Glo, 7 days); format: cell-based; details: Anti-proliferation
Exercise: for every item that follows, state its recorded log10 of IC50.
Annotation: log10 of IC50, nM basis.

Examples with answers:
[
  {
    "molecule": "ADC1-1: antibody: Cofetuzumab; \"ADC Compounds used references\" (conjugate, chains of the INN, looked up, drug conjugate) VH: QVQLVQSGPEVKKPGASVKVSCKASGYTFTDYAVHWVRQAPGKRLEWIGVISTYNDYTYNNQDFKGRVTMTRDTSASTAYMELSRLRSEDTAVYYCARGNSYFYALDYWGQGTSVTVSS VL: EIVLTQSPATLSLSPGERATLSCRASESVDSYGKSFMHWYQQKPGQAPRLLIYRASNLESGIPARFSGSGSGTDFTLTISSLEPEDFAVYYCQQSNEDPWTFGGGTKLEIK",
    "log10 of IC50": -0.51
  },
  {
    "molecule": "ADC1-12: antibody: Cofetuzumab; \"ADC Compounds used references\" (conjugate, chains of the INN, looked up, drug conjugate) VH: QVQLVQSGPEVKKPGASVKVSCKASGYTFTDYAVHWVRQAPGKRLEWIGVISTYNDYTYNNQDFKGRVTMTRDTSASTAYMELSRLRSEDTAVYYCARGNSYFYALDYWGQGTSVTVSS VL: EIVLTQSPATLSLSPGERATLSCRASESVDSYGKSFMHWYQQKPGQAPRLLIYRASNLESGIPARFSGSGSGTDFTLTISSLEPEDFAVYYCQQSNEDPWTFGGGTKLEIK",
    "log10 of IC50": 1.60
  }
]

Hey, quick one: what's log10 of IC50 for each of these?
1. ADC1-11: antibody: Cofetuzumab (conjugate, chains of the INN, looked up, drug conjugate, antibody: Cofetuzumab) VH: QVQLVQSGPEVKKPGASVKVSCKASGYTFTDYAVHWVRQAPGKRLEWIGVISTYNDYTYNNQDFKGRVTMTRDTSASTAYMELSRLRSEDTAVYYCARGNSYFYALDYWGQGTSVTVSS VL: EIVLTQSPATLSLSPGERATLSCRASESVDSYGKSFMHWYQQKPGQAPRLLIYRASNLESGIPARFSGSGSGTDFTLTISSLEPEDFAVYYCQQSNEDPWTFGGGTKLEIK
2. ADC1-2: antibody: Cofetuzumab (conjugate, chains of the INN, looked up, drug conjugate, antibody: Cofetuzumab) VH: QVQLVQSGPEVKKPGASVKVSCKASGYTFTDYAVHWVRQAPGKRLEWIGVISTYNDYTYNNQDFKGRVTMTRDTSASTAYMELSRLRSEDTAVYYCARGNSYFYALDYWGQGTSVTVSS VL: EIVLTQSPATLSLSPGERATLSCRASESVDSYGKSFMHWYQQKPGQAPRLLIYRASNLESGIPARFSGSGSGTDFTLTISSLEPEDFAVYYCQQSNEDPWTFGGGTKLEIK
3. ADC1-4: antibody: Cofetuzumab (conjugate, chains of the INN, looked up, drug conjugate, antibody: Cofetuzumab) VH: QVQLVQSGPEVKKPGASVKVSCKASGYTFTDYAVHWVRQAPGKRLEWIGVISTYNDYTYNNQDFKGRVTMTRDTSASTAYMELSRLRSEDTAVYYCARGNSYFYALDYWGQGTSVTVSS VL: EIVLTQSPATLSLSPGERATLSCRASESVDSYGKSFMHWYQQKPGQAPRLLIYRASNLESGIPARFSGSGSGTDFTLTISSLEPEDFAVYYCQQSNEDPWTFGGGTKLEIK

0.32
-0.64
-0.49

These measurements were taken from patent US20250135026A1.
